# assay_explanation: Pharmacokinetics test in Balb/C mice
# Type: in vivo
# particulars: male, mouse, po, p.o. 5 mg/kg, plasma, read-out: Average residence time MRT0−∞
observation_type: MRT inf (h)

Recorded results for 5 molecules are shown here.
> print(dat)
                                   molecule  value.measured
1  COc1nc(-c2cccc(-c3cccc(NC(=O)c4nc5c(n4C)CCN(C)C5)c3Cl)c2Cl)ccc1CNC1COC1 [Embodiment 114]            11.3
2  COc1nc(-c2cccc(-c3cccc(NC(=O)c4nc5c(n4C)CCN(C)C5)c3Cl)c2Cl)ccc1CN1CC2(C1)CN(C(C)=O)C2 [Embodiment 123]            12.8
3  COc1nc(-c2cccc(-c3cccc(NC(=O)c4nc5c(n4C)CCN(C)C5)c3Cl)c2Cl)ccc1CN1CC(F)C1 [Embodiment 120]              17
4  COc1nc(-c2cccc(-c3cccc(NC(=O)c4nc5c(n4C)CCN(C)C5)c3Cl)c2Cl)ncc1CN1CC(CO)C1 [Embodiment 223]              16
5  COc1nc(-c2cccc(-c3cccc(NC(=O)c4nc5c(n4C)CCN(C)C5)c3Cl)c2Cl)ncc1CN1CC(CNC(C)=O)C1 [Embodiment 225]            10.6

1 = COc1nc(-c2cccc(-c3cccc(NC(=O)c4nc5c(n4C)CCN(C)C5)c3Cl)c2Cl)cnc1CN1CC2(C1)CN(C(C)=O)C2 [Embodiment 152]
2 = COc1nc(-c2cccc(-c3cccc(NC(=O)c4nc5c(n4C)CCN(C)C5)c3Cl)c2Cl)ccc1CN1CC2(C1)CN(C(=O)C(C)C)C2 [Embodiment 186]
Which numeric MRT inf is bigger, that of 1 or that of 2 ? Kindly state the label of the option you pick.
2
(2: 22.5 h, 1: 10 h)

====

# assay_explanation: Plasma protein binding rate (equilibrium dialysis)
# Type: in vitro ADME
# particulars: mouse plasma, equilibrium dialysis 37° C. 5 hours
observation_type: fraction unbound at 5 h, 5 μM

A = COc1nc(-c2cccc(-c3cccc(NC(=O)c4nc5c(n4C)CCN(C)C5)c3Cl)c2Cl)ccc1CN1CC2(C1)CN(C(=O)C(C)C)C2
B = COc1nc(-c2cccc(-c3cccc(NC(=O)c4nc5c(n4C)CCN(C)C5)c3Cl)c2Cl)ccc1CN1CC(NC(C)=O)C1
Which entry shows the lesser value of fraction unbound at 5 h, 5 μM here, A or B ? Kindly state the label of the option you pick.
A

====

# assay_system: human PD-1/PD-L1 binding (Homo sapiens)
# Construct: PD-L1-His protein (19 to 238 amino acids) (Abcam #ab167713); purchased Abcam (PD-L1-His); R&D (PD-1-Fc) ab167713; 1086-PD
# Sequence (Q9NZQ7 19-238): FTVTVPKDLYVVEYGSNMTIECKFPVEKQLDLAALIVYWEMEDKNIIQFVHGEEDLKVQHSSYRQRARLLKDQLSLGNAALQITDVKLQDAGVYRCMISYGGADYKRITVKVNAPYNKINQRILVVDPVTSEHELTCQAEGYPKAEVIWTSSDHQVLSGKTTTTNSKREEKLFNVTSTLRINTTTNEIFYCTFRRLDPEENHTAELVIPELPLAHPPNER
# assay_explanation: Inhibition of human PD-1/PD-L1 binding (TR-FRET/HTRF)
# particulars: TR-FRET, PD-L1-His and PD-1-Fc; read-out: PD-1/PD-L1 binding IC50
observation_type: IC50 (nM)

Record excerpt, results attached:
> print(dat)
                                   molecule  value.measured
1  COc1cc(C(=O)Nc2cccc(-c3cccc(NC(=O)c4nc5c(n4C)CCN(C)C5)c3Cl)c2C)ncc1CN1CC(F)(CO)COC1=O (stereo not shown)             5.9
2  COc1cc(-c2cccc(-c3cccc(NC(=O)c4nc5c(n4C)CCN(C)C5)c3Cl)c2Cl)ccc1CNCCO               4

A = COc1cc(C(=O)Nc2cccc(-c3cccc(NC(=O)c4nc5c(n4C)CCN(C)C5)c3Cl)c2C)ncc1CNC1CN(C(C)=O)C1
B = COc1nc(-c2cccc(-c3cccc(NC(=O)c4nc5c(n4C)CCN(C)C5)c3Cl)c2Cl)ccc1CN[C@@H](CO)C(=O)O
C = COc1nc(-c2cccc(-c3cccc(NC(=O)c4nc5c(n4C)CCN(C)C5)c3Cl)c2Cl)ccc1CN1CC2(CCN(C(C)=O)C2)C1
Number of molecules to sort: 3. Sort criterion: IC50, ascending. Reply: labels, ordered per the request.
B, C, A

A = COc1nc(-c2cccc(-c3cccc(NC(=O)c4nc5c(n4C)CCN(C)C5)c3Cl)c2Cl)ncc1CN1CC(CNC(C)=O)C1
B = CNC(=O)C1CN(Cc2ccc(-c3cccc(-c4cccc(NC(=O)c5nc6c(n5C)CCN(C)C6)c4Cl)c3Cl)nc2OC)C1
C = CNC(=O)CNCc1cnc(C(=O)Nc2cccc(-c3cccc(NC(=O)c4nc5c(n4C)CCN(C)C5)c3Cl)c2C)cc1OC
Rank the 3 molecules: largest IC50 first, smallest last. Reply: labels, ordered per the request.
B, A, C
(B: 7 nM, A: 4.5 nM, C: 2.4 nM)
